Below are compounds with their pIC50 as measured on synthetic Aβ 1-40 (Homo sapiens, UniProt P05067).
Sequence (P05067 672-711 limits assumed): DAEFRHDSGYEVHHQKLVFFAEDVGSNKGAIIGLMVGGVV
For clarity, pIC50 is expressed as the negative log10 of concentration in mol/L.

[ask] Field request: pIC50 | item: CC(=O)Nc1ccc2nc(-c3ccc(N4CCN(C)CC4)nc3)sc2c1 [Example 15]
[reply] 6.73

[ask] Consider next the compound COc1ccc(-c2nc3ccc(C(N)=O)cc3s2)cn1 [Example 9] in the same way.
[reply] 6.77

[ask] // same read-out, input: CN1CCN(c2ccc(-c3nc4ccc(O)cc4s3)cn2)CC1 [Example 6]
[reply] 6.75

[ask] What do we get for CNc1ccc(-c2nc3ccc(OC)cc3s2)cn1 [Example 25] ?
[reply] 7.24

The measured values listed here are drawn from patent US8957215B2.
